// data source = patent US8859783B2

biological target: TrkA (Homo sapiens); construct: Recombinant proteins containing kinase domain were purchased from Millipore (Billerica, Mass.); test: HTRF kinase assay, TrkA; details: dose response curves; read-out: IC50 against TrkA
Sequence (P04629 510-781 limits assumed): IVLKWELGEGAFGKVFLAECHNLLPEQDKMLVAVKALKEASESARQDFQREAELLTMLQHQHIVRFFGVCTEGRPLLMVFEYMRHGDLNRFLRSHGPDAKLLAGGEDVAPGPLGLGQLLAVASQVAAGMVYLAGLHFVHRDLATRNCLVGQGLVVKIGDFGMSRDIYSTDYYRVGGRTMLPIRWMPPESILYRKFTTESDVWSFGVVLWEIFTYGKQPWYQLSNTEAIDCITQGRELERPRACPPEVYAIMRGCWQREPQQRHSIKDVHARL
property: IC50
Give the number first and the unit second.

Q: Look up IC50: O=C1Nc2ccc([N+](=O)[O-])cc2/C1=C1/Nc2ccc(O)cc2C1=NO [Compound 11b]
A: 4 µM

###

# key: entry, value: IC50
tested on: HCT116 human colon cancer cell; test: SRB cell proliferation assay, HCT116; assay type: cell-based; details: Homo sapiens, HCT-116, 72 h, 3 days

Known IC50 results, listed for orientation:
Cc1ccc2c(c1)C(=NO)/C(=C1/C(=O)Nc3ccc(OC(F)(F)F)cc31)N2 [Compound 14d]    > 20000 nM
O=C1Nc2ccc(OC(F)(F)F)cc2/C1=C1/Nc2ccc(F)cc2C1=NO [Compound 13d]    1500 nM
O=C1Nc2ccc(F)cc2/C1=C1/Nc2ccc(O)cc2C1=NO [Compound 11c]    1660 nM
COc1ccc2c(c1)C(=NO)/C(=C1/C(=O)Nc3ccc([N+](=O)[O-])cc31)N2 [Compound 16a]    > 20000 nM
Cc1ccc2c(c1)C(=NO)/C(=C1/C(=O)Nc3ccc([N+](=O)[O-])cc31)N2 [Compound 14b]    1410 nM
O=C1Nc2ccc([N+](=O)[O-])cc2/C1=C1/Nc2ccc(Cl)cc2C1=NO [Compound 12b]    ~300 nM

Q: Which IC50 is reported for this molecule? O=C1Nc2ccc(F)cc2/C1=C1/Nc2ccc(Cl)cc2C1=NO [Compound 12c]
A: 1700 nM

Q: Bench note: what IC50 did O=C1Nc2ccc([N+](=O)[O-])cc2C1=C1Nc2ccc(Br)cc2C1=NO [Compound 2, 5′-Bromo-5-nitro-indirubin-3′-oxime, reference compound] show?
A: 450 nM

Q: Using the record for Cc1ccc2c(c1)C(=NO)/C(=C1/C(=O)Nc3ccc(Cl)cc31)N2 [Compound 14a] , report its IC50.
A: 18800 nM

Q: So what's the measured IC50 for this one? O=C1Nc2ccc(Cl)cc2/C1=C1/Nc2ccc(Cl)cc2C1=NO [Compound 12a]
A: 1860 nM

Q: Name the recorded IC50 for Cc1ccc2c(c1)C(=NO)/C(=C1/C(=O)Nc3ccc(F)cc31)N2 [Compound 14c] .
A: > 20000 nM

Q: Which measured IC50 value corresponds to O=C1Nc2ccc(Cl)cc2/C1=C1/Nc2ccc(O)cc2C1=NO [Compound 11a] ?
A: 3500 nM

Q: Need IC50, item O=C1Nc2ccc([N+](=O)[O-])cc2/C1=C1/Nc2ccc(F)cc2C1=NO [Compound 13b]
A: ~300 nM

Q: Tell me the measured IC50 of COc1ccc2c(c1)C(=NO)/C(=C1/C(=O)Nc3ccc(OC(F)(F)F)cc31)N2 [Compound 16c] , please.
A: > 20000 nM

Q: If you can, please state the reported IC50 value of O=C1Nc2ccc(Cl)cc2/C1=C1/Nc2ccc(F)cc2C1=NO [Compound 13a] .
A: 3300 nM

Q: Which IC50 is listed for COc1ccc2c(c1)C(=NO)/C(=C1/C(=O)Nc3ccc(F)cc31)N2 [Compound 16b] ?
A: 3590 nM

Q: Suppose we examine the molecule O=C1Nc2ccc(F)cc2/C1=C1/Nc2ccc(F)cc2C1=NO [Compound 13c] ; what IC50 value has been reported?
A: 13500 nM

Q: Entry O=C1Nc2ccc(OC(F)(F)F)cc2/C1=C1/Nc2ccc(O)cc2C1=NO [Compound 11d] has what IC50?
A: 2250 nM

Q: Report IC50 for O=C1Nc2ccc(OC(F)(F)F)cc2/C1=C1/Nc2ccc(Cl)cc2C1=NO [Compound 12d] please.
A: 3790 nM

###

molecular target: CDK2/cyclin E (Homo sapiens); test: CDK2/cyclin E kinase assay; conditions: ten concentrations, dose response curves; read-out: CDK2/cyclin E inhibitory activity IC50
property: pIC50
# log scale: pIC50 equals minus log10 of the concentration in mol/L

Example results:
O=C1Nc2ccc([N+](=O)[O-])cc2/C1=C1/Nc2ccc(F)cc2C1=NO [Compound 13b]    8.77
O=C1Nc2ccc(F)cc2/C1=C1/Nc2ccc(Cl)cc2C1=NO [Compound 12c]    8.00
COc1ccc2c(c1)C(=NO)/C(=C1/C(=O)Nc3ccc(OC(F)(F)F)cc31)N2 [Compound 16c]    5.06

Q: // lookup pIC50 for O=C1Nc2ccc(OC(F)(F)F)cc2/C1=C1/Nc2ccc(F)cc2C1=NO [Compound 13d]
A: 7.22

Q: Which value of pIC50 has been reported for O=C1Nc2ccc([N+](=O)[O-])cc2/C1=C1/Nc2ccc(Cl)cc2C1=NO [Compound 12b] in the records?
A: 7.63

Q: Entry O=C1Nc2ccc(F)cc2/C1=C1/Nc2ccc(F)cc2C1=NO [Compound 13c] : reported pIC50 = ?
A: 8.74

Q: Which pIC50 value belongs to O=C1Nc2ccc(OC(F)(F)F)cc2/C1=C1/Nc2ccc(Cl)cc2C1=NO [Compound 12d] ?
A: 7.12

Q: I have this molecule here, O=C1Nc2ccc(OC(F)(F)F)cc2/C1=C1/Nc2ccc(O)cc2C1=NO [Compound 11d] , and I need its recorded pIC50.
A: 8.08

###

molecular target: CDK2/cyclin E (Homo sapiens, UniProt P24941); experiment: CDK2/cyclin E kinase assay; conditions: ten concentrations, dose response curves; read-out: CDK2/cyclin E inhibitory activity IC50
pIC50: −log10 of the molar value.
Outcome label depends on pIC50 relative to 8: at/above gives rule met, below gives rule not met.

Solved entries:
O=C1Nc2ccc(F)cc2/C1=C1/Nc2ccc(O)cc2C1=NO [Compound 11c]    rule met
COc1ccc2c(c1)C(=NO)/C(=C1/C(=O)Nc3ccc(F)cc31)N2 [Compound 16b]    rule not met
O=C1Nc2ccc([N+](=O)[O-])cc2/C1=C1/Nc2ccc(O)cc2C1=NO [Compound 11b]    rule met

Q: Threshold query (pIC50 >= 8) on COc1ccc2c(c1)C(=NO)/C(=C1/C(=O)Nc3ccc([N+](=O)[O-])cc31)N2 [Compound 16a]
A: rule not met

Q: Given O=C1Nc2ccc(Cl)cc2/C1=C1/Nc2ccc(O)cc2C1=NO [Compound 11a] , state whether its pIC50 is at least 8.
A: rule met

###

Target: IKKβ (Homo sapiens)
Construct: Recombinant proteins containing kinase domain were purchased from Millipore (Billerica, Mass.)
Sequence (O14920 15-300 limits assumed): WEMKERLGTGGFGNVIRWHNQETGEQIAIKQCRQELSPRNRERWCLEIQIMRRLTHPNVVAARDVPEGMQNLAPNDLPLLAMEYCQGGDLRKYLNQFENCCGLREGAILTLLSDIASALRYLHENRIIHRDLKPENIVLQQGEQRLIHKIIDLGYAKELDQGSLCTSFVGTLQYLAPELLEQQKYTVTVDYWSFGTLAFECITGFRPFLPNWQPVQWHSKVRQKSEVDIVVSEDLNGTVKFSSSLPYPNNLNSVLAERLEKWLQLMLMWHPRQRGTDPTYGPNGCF
Assay: HTRF kinase assay, IKKβ
Conditions: dose response curves; read-out: IC50 against IKKβ
property: IC50 (µM)
Unit µM implied. Number only.

Q: Look up IC50 with IKKβ (Homo sapiens) for this compound: O=C1Nc2ccc([N+](=O)[O-])cc2/C1=C1/Nc2ccc(O)cc2C1=NO [Compound 11b]
A: 10

###

Parameter pIC50: see the listing below.
tested on: KB human nasopharyngeal cancer cell; test: SRB cell proliferation assay, KB; format: cell-based; conditions: 72 h, 3 days
By convention, pIC50 is the negative base-10 log of a molar concentration.

Reference set, count: 3
O=C1Nc2ccc(OC(F)(F)F)cc2/C1=C1/Nc2ccc(Cl)cc2C1=NO [Compound 12d]    5.55
Cc1ccc2c(c1)C(=NO)/C(=C1/C(=O)Nc3ccc(OC(F)(F)F)cc31)N2 [Compound 14d]    5.09
COc1ccc2c(c1)C(=NO)/C(=C1/C(=O)Nc3ccc(OC(F)(F)F)cc31)N2 [Compound 16c]    4.70

Query compound follows.
Q: Entry O=C1Nc2ccc(Cl)cc2/C1=C1/Nc2ccc(O)cc2C1=NO [Compound 11a] : reported pIC50 = ?
A: 4.99

###

test system: KB human nasopharyngeal cancer cell; test: SRB cell proliferation assay, KB; type: cell-based; settings: 72 h, 3 days
property: IC50 (µM)
Note: unit µM is implicit; provide only the numeric part.

O=C1Nc2ccc(F)cc2/C1=C1/Nc2ccc(O)cc2C1=NO [Compound 11c]    4.6
Cc1ccc2c(c1)C(=NO)/C(=C1/C(=O)Nc3ccc([N+](=O)[O-])cc31)N2 [Compound 14b]    2.1
Cc1ccc2c(c1)C(=NO)/C(=C1/C(=O)Nc3ccc(F)cc31)N2 [Compound 14c]    10.6
O=C1Nc2ccc(OC(F)(F)F)cc2/C1=C1/Nc2ccc(O)cc2C1=NO [Compound 11d]    5.8

In the following, a different compound is considered.
Q: Name the reported IC50 value associated with the compound O=C1Nc2ccc(Cl)cc2/C1=C1/Nc2ccc(Cl)cc2C1=NO [Compound 12a]
A: 11.9
